Consider the following molecules; for each one, report its pIC50.
assay.target: TTK (Homo sapiens, UniProt P33981)
Sequence (P33981 whole entry): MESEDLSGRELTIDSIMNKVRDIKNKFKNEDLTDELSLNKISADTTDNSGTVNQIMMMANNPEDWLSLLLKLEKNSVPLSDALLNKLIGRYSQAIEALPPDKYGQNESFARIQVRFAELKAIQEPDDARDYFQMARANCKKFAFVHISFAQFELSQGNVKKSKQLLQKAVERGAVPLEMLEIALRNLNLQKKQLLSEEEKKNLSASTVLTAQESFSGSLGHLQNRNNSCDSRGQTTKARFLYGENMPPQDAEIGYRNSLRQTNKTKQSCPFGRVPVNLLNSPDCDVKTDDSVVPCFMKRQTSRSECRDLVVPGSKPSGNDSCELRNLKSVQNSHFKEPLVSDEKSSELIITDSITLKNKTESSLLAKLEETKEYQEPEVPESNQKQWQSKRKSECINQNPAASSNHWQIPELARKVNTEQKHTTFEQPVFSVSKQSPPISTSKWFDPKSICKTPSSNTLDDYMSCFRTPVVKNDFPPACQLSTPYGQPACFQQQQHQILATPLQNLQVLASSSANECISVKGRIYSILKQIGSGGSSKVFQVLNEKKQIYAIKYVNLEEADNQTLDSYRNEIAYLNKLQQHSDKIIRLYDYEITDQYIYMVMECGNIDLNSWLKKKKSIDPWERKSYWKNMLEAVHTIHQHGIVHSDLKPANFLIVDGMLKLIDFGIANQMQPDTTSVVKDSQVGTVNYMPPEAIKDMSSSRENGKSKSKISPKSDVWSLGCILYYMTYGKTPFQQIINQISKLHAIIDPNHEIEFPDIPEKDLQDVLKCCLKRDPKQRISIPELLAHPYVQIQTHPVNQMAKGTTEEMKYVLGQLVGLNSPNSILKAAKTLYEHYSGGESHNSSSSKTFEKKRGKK
method.description: TTK assay: screening of TTK kinase activity suppressing action using p38 MAPK peptide
Type: biochemical
experimental.conditions: p38 MAPK peptide substrate; read-out: TTK IC50
Answers are plain numbers, as −log10 of the molar value.

Known pIC50 results, listed for orientation:
molecule: C#CC(C)(C)Nc1cc(NCC2CCOCC2)c2ncc(-c3ccc(C(=O)NC4CC4)cc3)n2n1
pIC50: 8.40

molecule: O=C(NC1CC1)c1ccc(-c2cnc3c(NCC4CCOCC4)cc(Oc4cccc(C(F)(F)F)c4)nn23)cc1
pIC50: 8.42

molecule: CCCC(C)Nc1cc(NCC2CCOCC2)c2ncc(-c3ccc(C(=O)NC4CC4)cc3)n2n1 (stereo not shown)
pIC50: 8.26

Please give pIC50, item by item, for the list that follows.
1. O=C(NC1CC1)c1ccc(-c2cnc3c(NCC4CCOCC4)cc(NC4CCOCC4)nn23)cc1
2. O=C(NC1CC1)c1ccc(-c2cc(NCC3CCOCC3)c3ncc(-c4ccc(C(=O)NC5CC5)cc4)n3n2)cc1

[8.23, 7.92]

Please give pIC50, item by item, for the list that follows.
1. O=C(NC1CC1)c1ccc(-c2cnc3c(NCC4CCOCC4)cc(NC4CC=CC4)nn23)cc1
2. COCCNc1cc(NCC2CCOCC2)c2ncc(-c3ccc(C(=O)NC4CC4)cc3)n2n1
3. O=C(NC1CC1)c1ccc(-c2cnc3c(NCC4CCOCC4)cc(NC4CC5CCCC(C5)C4)nn23)cc1 (stereo not shown)
4. N#Cc1ccc(-c2cn3c(-c4ccc(C(=O)NC5CC5)cc4)cnc3c(NCCSCCO)n2)cc1
5. CC1(Nc2cc(NCC3CCOCC3)c3ncc(-c4ccc(C(=O)NC5CC5)cc4)n3n2)CCCC1

1: 8.13; 2: 7.74; 3: 8.35; 4: 8.17; 5: 8.44

====

Test system: A549
method.description: A549 assay: screening of cancer cell growth inhibiting compound
Assay type: cell-based
experimental.conditions: Homo sapiens, 72 h; A549 cells, three days, WST-8; read-out: A549 IC50
pIC50: −log10 of the molar value.
measured.property: pIC50

molecule: O=C(NC1CC1)c1ccc(-c2cnc3c(NCC4CCOCC4)cc(N4CCCCC4)nn23)cc1
measured.property: pIC50
assay.result: 6.30 to 7.30

molecule: CC(C)CN(CC1CC1)c1cc(NCC2CCOCC2)c2ncc(-c3ccc(C(=O)NC4CC4)cc3)n2n1
measured.property: pIC50
assay.result: 6.00 to 6.30

molecule: O=C(NC1CC1)c1ccc(-c2cnc3c(NCC4CCOCC4)cc(Oc4ccccc4C(F)(F)F)nn23)cc1
measured.property: pIC50
assay.result: 6.30 to 7.30

molecule: O=C(NC1CC1)c1ccc(-c2cnc3c(NCC4CC4)cc(NC4CCCCC4)nn23)cc1
measured.property: pIC50
assay.result: 6.30 to 7.30

Please give pIC50, item by item, for the list that follows.
1. CC(C)CNc1nc(-c2cccc(NC(=O)CCCN3CCOCC3)c2)cn2c(-c3ccc(C(=O)NC4CC4)cc3)cnc12
2. CC(C)C(Nc1cc(NCC2CCOCC2)c2ncc(-c3ccc(C(=O)NC4CC4)cc3)n2n1)C(F)(F)F (centres unmarked)

["6.00 to 6.30", "≥ 7.30"]

Please give pIC50, item by item, for the list that follows.
1. CC1CCC(Nc2cc(NCC3CCOCC3)c3ncc(-c4ccc(C(=O)NC5CC5)cc4)n3n2)CC1 (centres unmarked)
2. O=C(NC1CC1)c1ccc(-c2cnc3c(NCc4cncs4)cc(NC4CCCCC4)nn23)cc1
3. O=C(NC1CC1)c1ccc(-c2cnc3c(NCc4cccnc4)cc(NC4CCCCC4)nn23)cc1
4. CC(C)(C)CC(C)(C)Nc1cc(NCC2CCOCC2)c2ncc(-c3ccc(C(=O)NC4CC4)cc3)n2n1
5. O=C(NC1CC1)c1ccc(-c2cnc3c(NCc4ccc(F)cc4)cc(NC4CCCCC4)nn23)cc1
6. CCC(C)(C)Nc1cc(NCC2CCOCC2)c2ncc(-c3ccc(C(=O)NC4CC4)cc3)n2n1

1: 6.30 to 7.30; 2: 6.30 to 7.30; 3: 6.30 to 7.30; 4: ≥ 7.30; 5: 6.30 to 7.30; 6: ≥ 7.30

Please give pIC50, item by item, for the list that follows.
1. CC(C)CNc1nc(-c2cccc(NC(=O)N3CCN(C)CC3)c2)cn2c(-c3ccc(C(=O)NC4CC4)cc3)cnc12
2. CC(C)CNc1nc(-c2ccc(NCCCN)cc2)cn2c(-c3ccc(C(=O)NC4CC4)cc3)cnc12
3. C[C@@H]1CN(c2cc(NCC3CCOCC3)c3ncc(-c4ccc(C(=O)NC5CC5)cc4)n3n2)C[C@H](C)O1
4. CC(C)CNc1nc(-c2ccc(C(=O)N3CCOCC3)cc2)cn2c(-c3ccc(C(=O)NC4CC4)cc3)cnc12

1: 5.00 to 6.00; 2: 5.00 to 6.00; 3: 6.30 to 7.30; 4: 5.00 to 6.00

Please give pIC50, item by item, for the list that follows.
1. CC(C)CCNc1cc(NC2CCCCC2)nn2c(-c3ccc(C(=O)NC4CC4)cc3)cnc12
2. O=C(NC1CC1)c1ccc(-c2cnc3c(NCC4CCSCC4)cc(NC4CCCCC4)nn23)cc1

1. 6.30 to 7.30
2. 6.30 to 7.30

Please give pIC50, item by item, for the list that follows.
1. O=C(NC1CC1)c1ccc(-c2cnc3c(NCC4CCOCC4)nc(CC4CCCCC4)cn23)cc1
2. CC(C)C(C)(C)Nc1cc(NCC2CCOCC2)c2ncc(-c3ccc(C(=O)NC4CC4)cc3)n2n1

["5.00 to 6.00", "≥ 7.30"]

====

Consider the following molecules; for each one, report its pIC50.
assay.target: TTK (Homo sapiens, UniProt P33981)
method.description: TTK assay: screening of TTK kinase activity suppressing action using p38 MAPK peptide
Type: biochemical
experimental.conditions: p38 MAPK peptide substrate; read-out: TTK IC50
One number for each entry, as −log10 of the molar value.

Please give pIC50, item by item, for the list that follows.
1. CC(C)CNc1cc(NCC2CCOCC2)c2ncc(-c3ccc(C(=O)NC4CC4)cc3)n2n1
2. N#CCCNc1nc(-c2ccc(C#N)cc2)cn2c(-c3ccc(C(=O)NC4CC4)cc3)cnc12
3. CC1CCC(Nc2cc(NCC3CCOCC3)c3ncc(-c4ccc(C(=O)NC5CC5)cc4)n3n2)CC1 (centres unmarked)
4. CCN(c1cc(NCC2CCOCC2)c2ncc(-c3ccc(C(=O)NC4CC4)cc3)n2n1)C1CCCC1
5. CC1(Nc2cc(NCC3CCOCC3)c3ncc(-c4ccc(C(=O)NC5CC5)cc4)n3n2)CCS(=O)(=O)C1 (centres unmarked)

8.21
7.79
8.22
8.22
8.41

Please give pIC50, item by item, for the list that follows.
1. CC1(Nc2cc(NCC3CCOCC3)c3ncc(-c4ccc(C(=O)NC5CC5)cc4)n3n2)CCCCC1
2. CC(=O)N1CCC(CNc2nc(-c3ccc(C#N)cc3)cn3c(-c4ccc(C(=O)NC5CC5)cc4)cnc23)CC1
3. O=C(NC1CC1)c1ccc(-c2cnc3c(NCc4nccs4)cc(NC4CCCCC4)nn23)cc1
4. N#Cc1ccc(-c2cn3c(-c4ccc(C(=O)NC5CC5)cc4)cnc3c(NCCOCCO)n2)cc1
5. O=C(NC1CC1)c1ccc(-c2cnc3c(OCC4CCOCC4)cc(NC4CCCCC4)nn23)cc1
6. CC(=O)N1CCC(CNc2cc(NC3CCCCC3)nn3c(-c4ccc(C(=O)NC5CC5)cc4)cnc23)CC1
7. CC(C)(C)CNc1cc(NC2CCCCC2)nn2c(-c3ccc(C(=O)NC4CC4)cc3)cnc12
8. O=C(NC1CC1)c1ccc(-c2cnc3c(NCC4CCOCC4)cc(Nc4ncccc4O)nn23)cc1

[8.59, 7.69, 8.51, 7.31, 8.30, 8.30, 8.02, 7.71]

Please give pIC50, item by item, for the list that follows.
1. N#Cc1ccc(-c2cn3c(-c4ccc(C(=O)NC5CC5)cc4)cnc3c(NCCS(=O)(=O)N3CCCC3)n2)cc1
2. O=C(NC1CC1)c1ccc(-c2cnc3c(NCC4CCCCC4)cc(NC4CCCCC4)nn23)cc1
3. O=C(NC1CC1)c1ccc(-c2cnc3c(NCc4ccoc4)cc(NC4CCCCC4)nn23)cc1

1: 7.74; 2: 8.07; 3: 8.47

Please give pIC50, item by item, for the list that follows.
1. CC(Nc1cc(NCC2CCOCC2)c2ncc(-c3ccc(C(=O)NC4CC4)cc3)n2n1)C(F)(F)F (centres unmarked)
2. O=C(NC1CC1)c1ccc(-c2cnc3c(NCc4cccnc4)cc(NC4CCCCC4)nn23)cc1
3. Cc1nc(C)c(-c2cc(NCC3CCOCC3)c3ncc(-c4ccc(C(=O)NC5CC5)cc4)n3n2)s1
4. O=C(NC1CC1)c1ccc(-c2cnc3c(NCC4CCOCC4)cc(Nc4ccccc4O)nn23)cc1

1. 8.29
2. 8.36
3. 7.71
4. 8.43
